experiment: soluble on expression in E. coli; label from the status in PepcDB or PDB records
Property label: soluble on expression in E. coli

Please review the following examples before continuing.
- Item sequence: "AMSKIICLTAGHSNTDPGAVNGSDREADLAQDMRNIVASILRNDYGLTVKTDGTGKGNMPLRDAVKLIRGSDVAIEFHTNAAANKTATGIEALSTPKNKRWCQVLGKAVAKKTGWKLRGEDGFKPDNAGQHSRLAYAQAGGIVFEPFFISNDTDLALFKTTKWGICRAIADAIAMELGAAKV"
  Result: "soluble"
- Item sequence: "MKGLYFQQSSTDEEITFVFQEKEDLPVTEDNFVKLQVKACALSQINTKLLAEMKMKKDLFPVGREIAGIVLDVGSKVSFFQPDDEVVGILPLDSEDPGLCEVVRVHEHYLVHKPEKVTWTEAAGSIRDGVRAYTALHYLSHLSPGKSVLIMDGASAFGTIAIQLAHHRGAKVISTACSLEDKQCLERFRPPIARVIDVSNGKVHVAESCLEETGGLGVDIVLDAGVRLYSKDDEPAVKLQLLPHKHDIITLLGVGGHWVTTEENLQLDPPDSHCLFLKGATLAFLNDEVWNLSNVQQGKYLCILKDVMEKLSTGVFRPQLDEPIPLYEAKVSMEAVQKNQGRKKQVVQF"
  Result: "soluble"
- Item sequence: "GPGSMRNYNNFNRVWKAPRRPFEKERLDREMKLCGQYGLRCKREIWRVNMTLSKMRRTARLLLTLPENHPRRLLEGSAIMRRCHEYGFLDEEKDKLDYVLSLTVPDILERRLQTIVFKAGLAKSVHHARVLIQQRHIAVAKQIVTIPSFIVRVSSERHIAFADASPFGNGRAGRVKRVRAKAAKRHAGGGDDDE"
  Result: "not soluble"
- Item sequence: "MAHCLHPEKFFPVVKSVALPPGSLNGKVALVTGGGTGLGKAIATTFAHLGASVAIAARRLDVLEKTADEIRSSTGGVCEPFQMDVKDPAKVAKAFDAVEKKLGHTPDILINNAAGNFIMATERLSPNAYGTIIDIVLKGTLHVTTELGRRCIQQKRGASVLSITTLYAQSGAPFVVPSAVSKAGVENMTKSLASEWAKHGLRFNAIAPGPIPTEGAFGRLFAGELKDSGDAMKASVPVGRLGHPEEIANLAAFMSSDFMSWMNGAIIDFDGGQQHIHHGSHMGQFLHEWDNEKWEETENLIRGRTGKEKKSKL"
  Result: "soluble"
- Item sequence: "GPGSMKQIAHYFRIKTAKHAVLEAGDNIRELCSVLSFPLIIKHVSGYSSVGMDKSCKVYDMDSLHSRVTRFIEQYQIALVEEFVVGDEATILVCADSTQPDGIRVFPPVMVQFPEGEDFKHFHLKWETYEGMEWRLMPEDDPALSQVLSTARTSFMHMMGGVGYGRVDVRIDRSTHDVVFLEINPNCGVMYPPGQEGSADWILRLTPGFNQREFTLLQIKEALRRNERMQPLFRCVYNPAQGYRMCATRDISAGSPIFEAEGQSVRLYTKPHVKATRGKEEYDQFAQKAWPLGGDGHYYALWDNEPTNWRTFSHSCVPNMNFGPNRSLNLYATRDIARGEELTMDYRLFRDETTPPFQCCCGSECCEGWIAMNGGKLTKEENGNNY"
  Result: "not soluble"
- Item sequence: "GSGPTYCWNEANNPGGPNRCSNNKQCDGARTCSSSGFCQGTSRKPDPGPKGPTYCWDEAKNPGGPNRCSNSKQCDGARTCSSSGFCQGTAGHAAA"
  Result: "soluble"
- Item sequence: "MGSSHHHHHHSSGLVPRGSHMKLYIIGAGPGDPDLITVKGLKLLQQADVVLYADSLVSQDLIAKSKPGAEVLKTAGMHLEEMVGTMLDRMREGKMVVRVHTGDPAMYGAIMEQMVLLKREGVDIEIVPGVTSVFAAAAAAEAELTIPDLTQTVILTRAEGRTPVPEFEKLTDLAKHKCTIALFLSSTLTKKVMKEFINAGWSEDTPVVVVYKATWPDEKIVRTTVKDLDDAMRTNGIRKQAMILAGWALDPATPWLSGLGENPAIRAMFVAHLHQALNMAVEEAA"
  Result: "soluble"
- Item sequence: "MAEVMSQTLEDAMRRNPHLRKYVEEFRRKYGKIPEFHVQLSRDMKEIPYPNIIYPVGDPIFIHIYGDPNTEKQYIVIEPRIETKEEEEKYKLIRDRMLELAPNKDIPEEQEEFERFLDSLFEEAVL"
  Result: "not soluble"

Specify reported soluble on expression in E. coli for the sequence shown: MTNNDPYHTLINEICALSLISTPERFYESANFKISEVDFTLQYQDRDEGRAVLIYGDMGALPTRNRDAALLALMDINFHMFSGVHSPVFSWNAQTSRVLLMGSVSLERASAEGVLLLMKSFADLANEWREHGFIGQVKTAGAPAEQPVATAAKRESLSASGKFQ not soluble

Specify reported soluble on expression in E. coli for the sequence shown: MAHHHHHHMDEGLPIDASEAQLEAIRREVAQYPLLSLSLPLNKESMIVKEMEHDDAYLAQTLSLFGASPVSTKQYDFGSIRYSRRDGNCFYRCAGFRLCELIVEHPERAAEYVALLKSREESLSRLFGLFVFDFTDALAEILKGVADKTITSVAQVYNRFISDDAAYVLAALRYLISAYLQEHEEEYEPFVSGLGYGAVRDYCNAEVELVDHESDNVQLAAFAKAFNVCIKVYALDRNAGNNITEYSFNGEDNDAGDRLVVGLLYMPGHYNLLGRGPG not soluble

Specify reported soluble on expression in E. coli for the sequence shown: VPGILMCEIFIRANQRSYSVQARSLRLHGVATSVRLEQLFWDVLEEIAARDGMRVTQLIERLYDELVQYRGEAANFTSFLRVCCLRYQVLQAEGRIPADATVPIRSLDAQAVLRGLPANLYDSR not soluble

Specify reported soluble on expression in E. coli for the sequence shown: MESYLTVIEQNGQLLVDSREVAEMVGKRHTDLLRSIDGYVAILLNAKLRSVEFFLESTYKDATGRSLKHFHLTRKGCDMVANKMTGAKGVLFTAQYVSKFEEMEKALKARPSLIDTYLDMNEDERAIAYFTERKAKRELQEQLTLAEPKVEKYDRFLNTDGLMKIGQVAKAIGIKGMGQNNLFRFLRENKVLIDGTNKNAPYQKYVERGFFQVKTQETSVGIKTITLVTPKGADFIVDLLKKHGHKREIAS not soluble
